Provenance of the data: the supplement of paper PMC10646978

test system: RAW-Dual (murine macrophage reporter line); assay: NF-kB reporter (SEAP) activity fold change vs agonist alone; higher = enhanced NF-kB activity; conditions: modulator concentration 10 µM; agonist: LPS 0.1 ug/mL
Mark F for NF-kB reporter values under 0.9, and T for everything at or above.

Check out these entries, answers already filled in.
Compound: NC(C(=O)O)c1ccccc1F (stereo not drawn)
Qualitative label: T
--
Compound: CCCCn1c(CNC(=O)c2cccs2)nc2ccccc21
Qualitative label: T
--
Compound: O=S(=O)(c1cccc2ccccc12)n1cnc2ccccc21
Qualitative label: T
--
Compound: Cc1cc(C)nc(NS(=O)(=O)c2ccc(NC(=O)C=Cc3cccc4ccccc34)cc2)n1
Qualitative label: T
--
Compound: CCCCCCCCCCCC1=C(O)C(=O)C=C(O)C1=O
Qualitative label: F
--
Compound: CC(C)(C)c1cc(C(=O)NN=Cc2ccc([N+](=O)[O-])cc2)[nH]n1
Qualitative label: T

Now take the following compound into account.
Query: Exam item: decide whether the reported NF-kB reporter for `O=C(CCC(=O)OCC(=O)c1cccs1)Nc1ccc(Oc2ccccc2)cc1` is at least 0.9.
Result: F

* * *

The reader will find reported IRF reporter values listed item by item below.
test system: RAW-Dual (murine macrophage reporter line); assay: IRF reporter (Lucia luciferase) activity fold change vs agonist alone; higher = enhanced IRF activity; conditions: modulator concentration 10 µM; agonist: 3'3'-cGAMP 10 ug/mL
Respond numerically, and do not add a unit to the figure.

Observe how each entry below is paired with its result.
Compound: COc1ccc(CCN(C)CCCC(C#N)(c2ccc(OC)c(OC)c2)C(C)C)cc1OC.Cl (stereo unspecified)
Quantitative result: 0.572

Compound: O=c1oc2cc(O)ccc2c2ccccc12
Quantitative result: 0.813

Compound: CC1CCc2c(N3CCC(O)CC3)c(F)cc3c(=O)c(C(=O)O)cn1c23 (stereo unspecified)
Quantitative result: 1.03

Compound: CCOC(=O)CN1CCOCCOCCN(CC(=O)OCC)CCOCCOCC1
Quantitative result: 0.974

Compound: COC(=O)C1=C(C)N(C)C(C)=C(C(=O)OC)C1c1ccc(-c2ccccc2)cc1
Quantitative result: 0.989

Moving on to the next compound.
Query: Note IRF reporter for the compound shown: `O=c1sn(-c2cccc3ccccc23)c(=O)n1Cc1ccccc1`
Result: 0.473

* * *

Each entry below lists one item and its recorded NF-kB reporter value.
test system: RAW-Dual (murine macrophage reporter line); test: NF-kB reporter (SEAP) activity fold change vs agonist alone; higher = enhanced NF-kB activity; details: modulator concentration 10 µM; agonist: LPS 0.1 ug/mL
Write the value as a bare number.

# count of solved cases: 3
Molecule: CCN(CC)CCN1C(=O)C(O)=C(C(=O)c2ccc(C)cc2)C1c1ccccc1 (centres undefined)
Experimental system: RAW-Dual (murine macrophage reporter line)
NF-kB reporter: 0.974
--
Molecule: C=C1C(=O)O[C@@H]2[C@H]3O[C@]3(C)CC/C=C(\C)CC[C@@H]12 [Prestw-550]
Experimental system: RAW-Dual (murine macrophage reporter line)
NF-kB reporter: 0.312
--
Molecule: Brc1ccc2ncnc(N3CCOCC3)c2c1
Experimental system: RAW-Dual (murine macrophage reporter line)
NF-kB reporter: 1.39

Query: Name the value of NF-kB reporter reported for `COc1cccc2c1C(=O)c1c(O)c3c(c(O)c1C2=O)C[C@@](O)(C(=O)CO)C[C@@H]3O[C@H]1C[C@H](N)[C@@H](O)[C@H](C)O1.Cl` when tested on RAW-Dual (murine macrophage reporter line).
Result: 0.0523

Query: Determine reported NF-kB reporter for `CN1C(=O)C(=NNC(=O)COc2cccc(Br)c2)c2ccccc21` ; test system: RAW-Dual (murine macrophage reporter line).
Result: 0.978

Query: Identify measured NF-kB reporter obtained with RAW-Dual (murine macrophage reporter line) for `Nc1nc(NC2CC2)c2ncn([C@H]3C=C[C@@H](CO)C3)c2n1.Nc1nc(NC2CC2)c2ncn([C@H]3C=C[C@@H](CO)C3)c2n1.O=S(=O)(O)O` .
Result: 1.02

Query: Identify measured NF-kB reporter obtained with RAW-Dual (murine macrophage reporter line) for `CCOc1ccc(C=NNc2nc(C)cs2)c(O)c1` .
Result: 0.965

Query: Fill in NF-kB reporter for `Clc1cccc(OCCCOc2cccc3cccnc23)c1` tested with RAW-Dual (murine macrophage reporter line).
Result: 1.13

Query: Output reported NF-kB reporter of the molecule `Cc1c(C#N)sc2nc(-c3ccccc3)nc(N=CN(C)C)c12` on RAW-Dual (murine macrophage reporter line).
Result: 1.05

* * *

Entries and their measured viability score follow.
tested on: RAW-Dual (murine macrophage reporter line); experiment: viability score (confluency relative to resting cells, overnight) (fraction); higher = more viable, active = viable (0.7 or more); conditions: modulator concentration 10 µM
Answer with the value's number alone.

Consider the worked cases shown below.
Compound: O=C(COC(=O)c1ccc2ccccc2n1)c1ccc(Br)cc1
Experimental system: RAW-Dual (murine macrophage reporter line)
viability score: 1
--
Compound: O=C(NCCCn1ccc2cccnc21)c1nc2ccccc2s1
Experimental system: RAW-Dual (murine macrophage reporter line)
viability score: 1
--
Compound: COC(=O)C1=C(C)NC(C)=C(C(=O)OC(C)C)C1c1cccc2nonc12 (stereo not drawn)
Experimental system: RAW-Dual (murine macrophage reporter line)
viability score: 1

Query: For `COc1ccccc1C=C(C#N)c1nc(-c2cc3cc(Br)ccc3oc2=O)cs1` , write its viability score.
Result: 1.02

Query: Give me measured viability score, please, for this compound: CC1=CCC(C2Nc3ccccc3-c3nnc(SCc4ccc(C)cc4)nc3O2)CC1 (stereo not drawn)
Result: 1.01

Query: Find the measured viability score of Cc1cc(I)cc2c1NC(c1cccc([N+](=O)[O-])c1)C1CC=CC21 (stereo not drawn) and report it.
Result: 1.02

Query: Determine its reported viability score: COc1cc2c(cc1OC)C(=O)C(CC1CCN(Cc3ccccc3)CC1)C2 (stereo not drawn)
Result: 0.99

Query: Read off the recorded viability score for Clc1ccc(C2C=C(c3ccccc3)Nc3ncnn32)cc1 (stereo not drawn)
Result: 1

Query: # return recorded viability score for entry `COc1ccc(S(=O)(=O)N(CC(=O)Nc2ccccc2Br)c2ccc(C)cc2)cc1OC`
Result: 1

Query: Supply viability score value. Item: `O=c1c(-n2ccnn2)c[nH]n1-c1cc(N2CCOCC2)ncn1`
Result: 1

Query: Provide only the value of recorded viability score for `COc1cc(C(=O)NCCCCc2ccccc2)cc(OC)c1OC`
Result: 0.995

Query: # return recorded viability score for entry `Cc1cc(-c2ccc(NC(=O)c3ccc([N+](=O)[O-])cc3)c(C)c2)ccc1NC(=O)c1ccc([N+](=O)[O-])cc1`
Result: 0.999

Query: Please look at this compound and report its viability score: `CC(C)CCn1c(COc2ccccc2)nc2ccccc21`
Result: 0.999

* * *

test system: RAW-Dual (murine macrophage reporter line); assay: NF-kB reporter (SEAP) activity fold change vs agonist alone; higher = enhanced NF-kB activity; details: modulator concentration 10 µM; agonist: LPS 0.1 ug/mL
Parameter measured: NF-kB reporter
Give your answer as a number; write no unit.

Some molecules with recorded NF-kB reporter:
Molecule: CCCOCCOC(=O)C1=C(C)NC2=C(C(=O)CCC2)C1c1ccc(F)c(F)c1 (stereo unspecified)
Experimental system: RAW-Dual (murine macrophage reporter line)
NF-kB reporter: 1.07
--
Molecule: O=C(Cn1ccnc1[N+](=O)[O-])NCCO
Experimental system: RAW-Dual (murine macrophage reporter line)
NF-kB reporter: 1.01
--
Molecule: c1cc2c3c(cccc3c1)-c1nc3ccccc3nc1-2
Experimental system: RAW-Dual (murine macrophage reporter line)
NF-kB reporter: 1.09
--
Molecule: O=C(Nc1ccc([N+](=O)[O-])cc1)c1cc(Cl)ccc1O
Experimental system: RAW-Dual (murine macrophage reporter line)
NF-kB reporter: 1.02
--
Molecule: O=C(Cn1ncccc1=O)N1Cc2cnc(N3CCOCC3)nc2C1
Experimental system: RAW-Dual (murine macrophage reporter line)
NF-kB reporter: 1.1

Turning now to a further molecule:
Query: Given `Cc1ccc(-c2cc(-c3ccccc3)nc(N3CCOCC3)n2)cc1` , respond with its NF-kB reporter.
Result: 1.01

* * *

tested on: RAW-Dual (murine macrophage reporter line); test: IRF reporter (Lucia luciferase) activity fold change vs agonist alone; higher = enhanced IRF activity; details: modulator concentration 10 µM; agonist: 3'3'-cGAMP 10 ug/mL
Reported IRF reporter values for a set of molecules
Give the figure only, with no unit attached.

Molecule: Cc1c(C#N)sc2nc(-c3ccccc3)nc(N=CN(C)C)c12
IRF reporter: 0.94
--
Molecule: CC1CC(=O)C2=C(C1)OC(N)=C(C#N)C2c1ccc(Br)cc1 (centres undefined)
IRF reporter: 0.782
--
Molecule: OC1C=C2CCN3Cc4cc5c(cc4C(C1O)C23)OCO5 (centres undefined)
IRF reporter: 0.678
--
Molecule: CC(=O)OC1=C(O)C=CC2C(C)=CC(=O)OC12 (centres undefined)
IRF reporter: 0.986
--
Molecule: COC1(C)CCC2OC2(C)CCC2C1CC2(C)C (centres undefined)
IRF reporter: 1.03

Query: Give the reported IRF reporter for this molecule. COC(=O)C1=C(C)NC(C)=C(C(=O)OCCN2CCN(C(c3ccccc3)c3ccccc3)CC2)C1c1cccc([N+](=O)[O-])c1 (centres undefined)
Result: 0.138

Query: Look up and report measured IRF reporter for this entry: COC(=O)C1=C(C)NC(C)=C(C(=O)OCCN(C)Cc2ccccc2)C1c1cccc([N+](=O)[O-])c1 (centres undefined)
Result: 0.324

Query: Please list IRF reporter recorded for the molecule CC(O)(CNC(=O)CSc1ccc(F)cc1)c1ccc(-c2ccccc2)cc1 (centres undefined)
Result: 0.685

Query: Give IRF reporter for the following molecule: `O=C(NC1CCCCCC1)c1ccc([N+](=O)[O-])cc1Cl`
Result: 0.804
